subjectOfTest: Metabotropic glutamate receptor 1 (Homo sapiens)
Sequence (Q13255 whole entry): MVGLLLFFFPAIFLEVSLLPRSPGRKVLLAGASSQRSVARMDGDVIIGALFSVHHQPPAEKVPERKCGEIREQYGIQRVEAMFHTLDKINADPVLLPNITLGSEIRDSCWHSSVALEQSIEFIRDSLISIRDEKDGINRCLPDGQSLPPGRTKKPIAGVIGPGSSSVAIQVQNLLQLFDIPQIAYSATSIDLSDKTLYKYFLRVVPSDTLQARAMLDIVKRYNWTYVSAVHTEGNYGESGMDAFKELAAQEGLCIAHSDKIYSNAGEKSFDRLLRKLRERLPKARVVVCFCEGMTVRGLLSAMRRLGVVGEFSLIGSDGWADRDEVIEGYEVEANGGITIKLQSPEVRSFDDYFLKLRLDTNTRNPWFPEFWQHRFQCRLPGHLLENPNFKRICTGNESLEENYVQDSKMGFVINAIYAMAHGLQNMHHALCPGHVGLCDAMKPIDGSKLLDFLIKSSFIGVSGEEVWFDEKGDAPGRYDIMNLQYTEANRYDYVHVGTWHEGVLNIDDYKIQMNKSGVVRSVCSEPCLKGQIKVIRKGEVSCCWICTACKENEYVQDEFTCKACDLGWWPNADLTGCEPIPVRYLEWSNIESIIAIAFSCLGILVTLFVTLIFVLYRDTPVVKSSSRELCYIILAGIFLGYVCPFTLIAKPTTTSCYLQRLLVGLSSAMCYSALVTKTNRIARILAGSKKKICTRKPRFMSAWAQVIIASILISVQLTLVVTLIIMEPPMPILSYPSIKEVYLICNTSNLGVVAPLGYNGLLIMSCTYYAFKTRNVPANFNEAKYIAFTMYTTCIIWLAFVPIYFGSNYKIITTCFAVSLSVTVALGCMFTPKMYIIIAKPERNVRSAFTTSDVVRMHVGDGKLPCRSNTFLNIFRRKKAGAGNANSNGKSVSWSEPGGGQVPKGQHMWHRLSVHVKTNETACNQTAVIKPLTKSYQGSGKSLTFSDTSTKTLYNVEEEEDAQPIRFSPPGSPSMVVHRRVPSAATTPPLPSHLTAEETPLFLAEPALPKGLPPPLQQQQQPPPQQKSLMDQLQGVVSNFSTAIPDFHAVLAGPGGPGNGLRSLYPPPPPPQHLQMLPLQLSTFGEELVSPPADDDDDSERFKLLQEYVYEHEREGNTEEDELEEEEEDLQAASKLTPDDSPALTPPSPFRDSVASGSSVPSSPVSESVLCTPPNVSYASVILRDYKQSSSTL
measurementDescription: Negative allosteric modulation of human recombinant mGlu1 receptor expressed in Syrian hamster AV12 cells assessed as receptor-mediated changes in intracellular calcium concentration by FLIPR assay
Reported pIC50 values for a set of compounds
Scale note: pIC50 = -log10(concentration in M).

Data request: Give a short answer stating reported pIC50 for CCCc1cccc(-c2c(-c3ccc4nn(C)cc4c3)nsc2NC(=O)[C@@H]2C[C@H]2C)n1 .
Data returned: 6.39

Data request: Read off the recorded pIC50 for C[C@@H]1C[C@H]1C(=O)Nc1snc(-c2ccc3nn(C)cc3c2)c1-c1cccc(C2CCC2)n1
Data returned: 6.16

Data request: Give the reported pIC50 for this compound. C[C@@H]1C[C@H]1C(=O)Nc1snc(-c2ccc3nn(C)cc3c2)c1-c1ccccn1
Data returned: 6.62

----------
Listed next: entries and their corresponding pIC50.
subjectOfTest: UniProtKB Q13255
measurementDescription: Negative allosteric modulation of human recombinant mGlu1 receptor expressed in Syrian hamster AV12 cells assessed as receptor-mediated changes in intracellular calcium concentration by FLIPR assay
Value format note: pIC50 is -log10 of concentration (mol/L); just state the number.

Example entries begin here.
C[C@@H]1C[C@H]1C(=O)Nc1snc(-c2ccc3nn(C)cc3c2)c1-c1cccc(N(C)C)n1	5.02
CCc1cccc(-c2c(-c3ccc4n[nH]cc4c3)nsc2NC(=O)[C@@H]2C[C@H]2C)n1	5.51

Please find the next compound below.
Data request: Tell me pIC50 of C[C@@H]1C[C@H]1C(=O)Nc1snc(-c2ccc3nn(C)cc3c2)c1-c1cccc(C2CC2)n1 when tested on UniProtKB Q13255.
Data returned: 6.13
